molecular target: Cytochrome P450 2D6 (Homo sapiens, UniProt P10635)
Sequence (P10635 whole entry): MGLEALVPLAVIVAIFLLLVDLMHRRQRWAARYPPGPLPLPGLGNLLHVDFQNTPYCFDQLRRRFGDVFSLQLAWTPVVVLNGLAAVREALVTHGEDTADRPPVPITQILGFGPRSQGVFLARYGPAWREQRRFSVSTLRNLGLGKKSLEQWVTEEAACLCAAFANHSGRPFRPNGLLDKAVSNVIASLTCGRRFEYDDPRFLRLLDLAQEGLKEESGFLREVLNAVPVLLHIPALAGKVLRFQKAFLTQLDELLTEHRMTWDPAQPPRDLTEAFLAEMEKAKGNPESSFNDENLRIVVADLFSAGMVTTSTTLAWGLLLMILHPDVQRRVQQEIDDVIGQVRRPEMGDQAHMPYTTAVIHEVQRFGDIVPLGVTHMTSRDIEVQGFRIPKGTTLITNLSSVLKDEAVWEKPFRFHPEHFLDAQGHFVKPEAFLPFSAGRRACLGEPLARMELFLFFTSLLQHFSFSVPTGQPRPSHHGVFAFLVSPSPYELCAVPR
pIC50: −log10 of the molar value.
assay endpoint: pIC50

- O=C(O)CCc1cc2cc(-c3cc(OC(F)(F)F)ccc3F)ccc2o1: < 4.30

----------
Property: EC50; scope: individual compounds
molecular target: Free fatty acid receptor 4 (Homo sapiens, UniProt Q5NUL3); assay: Agonist activity at human GPR120 expressed in CHOK1 cells measured after 60 mins by IP1-HTRF assay
Sequence (Q5NUL3 whole entry): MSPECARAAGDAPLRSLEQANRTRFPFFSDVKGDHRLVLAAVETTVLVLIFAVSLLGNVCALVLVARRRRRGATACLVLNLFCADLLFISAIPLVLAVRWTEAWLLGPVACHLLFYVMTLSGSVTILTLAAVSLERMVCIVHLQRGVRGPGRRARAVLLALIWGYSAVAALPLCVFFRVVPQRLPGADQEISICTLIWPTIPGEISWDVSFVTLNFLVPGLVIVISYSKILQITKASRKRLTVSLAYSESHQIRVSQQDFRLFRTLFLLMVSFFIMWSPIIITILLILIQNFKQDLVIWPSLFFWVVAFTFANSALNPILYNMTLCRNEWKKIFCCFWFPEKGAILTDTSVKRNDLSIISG
assay endpoint: EC50 (nM)

* Cc1cc(-c2cc(OC(F)(F)F)ccc2F)ccc1OCCCC(=O)O | 308
* O=C(O)CCCOc1ccc(-c2cc(OC(F)(F)F)ccc2Cl)cc1 | 57
* Cc1cc(-c2cc(OC(F)(F)F)ccc2F)cc(C)c1OCCCC(=O)O | 149

----------
biological target: Free fatty acid receptor 4 (Homo sapiens, UniProt Q5NUL3); experiment: Agonist activity at human GPR120 expressed in CHOK1 cells measured after 60 mins by IP1-HTRF assay; type: functional, cell-based, CHO-K1
assay endpoint: EC50 (nM)

- O=C(O)CCCOc1ccc(-c2cc(Oc3ccccc3)ccc2F)cc1: 100
- O=C(O)CCc1cc2cc(-c3cccc(OC4CCC4)c3)ccc2o1: 153
- O=C(O)CCCOc1ccc(-c2cc(Oc3cccc(F)c3)ccc2F)cc1: 60
- O=C(O)CCCOc1ccc(-c2cc(OC(F)(F)F)ccc2Cl)c(F)c1: 186
- O=C(O)CCC1Cc2cc(-c3cc(OC(F)(F)F)ccc3F)ccc2O1 (stereo in doubt; 45): 137
- CC(Cc1cc2cc(-c3cc(OC(F)(F)F)ccc3F)ccc2o1)C(=O)O (racemic): 83
- O=C(O)CCc1cc2cc(-c3cc(OC(F)(F)F)ccc3F)ccc2o1: 63

----------
molecular target: Free fatty acid receptor 1 (Homo sapiens); assay: Agonist activity at human GPR40 measured after 60 mins by IP1-HTRF assay relative to basal level; type: functional; parameters: concentration or dose not given beside the values
Sequence (O14842 whole entry): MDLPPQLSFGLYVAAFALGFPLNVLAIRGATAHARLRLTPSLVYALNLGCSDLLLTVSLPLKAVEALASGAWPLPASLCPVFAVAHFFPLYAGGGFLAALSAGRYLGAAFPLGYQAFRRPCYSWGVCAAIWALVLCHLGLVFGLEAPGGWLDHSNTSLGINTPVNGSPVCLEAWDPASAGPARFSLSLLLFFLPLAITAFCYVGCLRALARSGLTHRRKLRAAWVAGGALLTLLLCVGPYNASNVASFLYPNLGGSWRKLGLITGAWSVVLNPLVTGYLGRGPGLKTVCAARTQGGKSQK
Property: Activity; scope: individual compounds
assay endpoint: Activity (%)

* O=C(O)CCC1Cc2cc(-c3cc(OC(F)(F)F)ccc3F)ccc2O1 (stereo in doubt; 45) | 91
* Cc1cc(-c2cc(OC(F)(F)F)ccc2F)ccc1OCCCC(=O)O | 34
* CCOc1ccc(F)c(-c2ccc(OCCCC(=O)O)cc2)c1 | 22
* O=C(O)CCCOc1ccc(-c2cccc(Oc3ccccc3)c2)cc1 | 54
* O=C(O)CCC1Cc2cc(-c3cc(OC(F)(F)F)ccc3F)ccc2O1 (stereo in doubt; 44) | 24
* Cc1cc(-c2cc(OC(F)(F)F)ccc2Cl)ccc1OCCCC(=O)O | 37
* Cc1cc(OC2CCC2)cc(-c2ccc3oc(CCC(=O)O)cc3c2)c1 | 51
* O=C(O)CCCOc1ccc(-c2cc(OC(F)(F)F)ccc2F)cc1 | 91
* O=C(O)CCc1cc2cc(-c3cccc(OC4CCC4)c3)ccc2o1 | 40
* O=C(O)CCc1cc2cc(-c3cccc(OC(F)(F)F)c3)ccc2o1 | 43
* O=C(O)CCCOc1ccc(-c2cc(Oc3cccc(F)c3)ccc2Cl)cc1 | 67
* O=C(O)CCCOc1c(F)cc(-c2cc(OC(F)(F)F)ccc2F)cc1F | 46
* O=C(O)CCCOc1ccc(-c2cc(Oc3ccccc3)ccc2F)cc1 | 91

----------
molecular target: UniProt Q7TMA4; experiment: Agonist activity at mouse GPR120 expressed in CHOK1 cells measured after 60 mins by IP1-HTRF assay relative to basal level; assay type: functional, cell-based; design: concentration or dose not given beside the values; settings: CHO-K1
Sequence (Q7TMA4 whole entry): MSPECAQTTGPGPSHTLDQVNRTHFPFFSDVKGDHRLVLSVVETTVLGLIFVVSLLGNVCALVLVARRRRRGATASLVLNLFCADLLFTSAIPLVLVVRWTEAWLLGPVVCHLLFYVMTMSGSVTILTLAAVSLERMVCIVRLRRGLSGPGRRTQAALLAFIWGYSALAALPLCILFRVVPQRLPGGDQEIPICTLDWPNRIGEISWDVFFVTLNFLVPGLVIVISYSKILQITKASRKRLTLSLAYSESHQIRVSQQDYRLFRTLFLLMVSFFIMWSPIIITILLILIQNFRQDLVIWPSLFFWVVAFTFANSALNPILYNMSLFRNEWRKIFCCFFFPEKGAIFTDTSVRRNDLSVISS
Lab note: compare Activity against 60%. Equal or greater, write Yes. Smaller, write No.

- O=C(O)CCCOc1ccc(-c2cc(OC(F)(F)F)ccc2Cl)c(F)c1: Yes
- O=C(O)CCCOc1ccc(-c2cc(OC(F)(F)F)ccc2Cl)cc1: Yes
- O=C(O)CCCOc1ccc(-c2cc(Oc3cccnc3)ccc2Cl)cc1: Yes
- O=C(O)CCCOc1ccc(-c2ccccc2OC(F)(F)F)cc1: No
- COc1cccc(Oc2cccc(-c3ccc(OCCCC(=O)O)cc3)c2)c1: No
